Molecular target: T1, full-length human Siglec15 with C-terminal flag and Myc tags on HEK293 cells (human, UniProt Q6ZMC9 20-328)
T1 construct: whole, on cells; also called Siglec15/HEK293; HEK293-Siglec 15; not shown: C-terminal flag and Myc tags from pCMV6-Entry vector
T1 sequence (looked up): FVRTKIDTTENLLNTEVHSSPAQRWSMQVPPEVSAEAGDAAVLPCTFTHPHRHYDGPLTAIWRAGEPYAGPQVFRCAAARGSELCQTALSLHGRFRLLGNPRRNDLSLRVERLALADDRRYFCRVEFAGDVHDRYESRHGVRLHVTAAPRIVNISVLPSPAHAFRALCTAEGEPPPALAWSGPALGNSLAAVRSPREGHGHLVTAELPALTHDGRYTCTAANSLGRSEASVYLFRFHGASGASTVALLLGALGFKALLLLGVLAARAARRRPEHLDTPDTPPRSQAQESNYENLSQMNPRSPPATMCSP
Assay: FACS on Siglec15/HEK293 cells, scFv, anti-His detection
MEASURE_NAME: EC50 (nM)

* 2020EP083-H01 scFv (scFv, V domains shown, Tested as a single-chain scFv made in E. coli with a C-terminal flag and 6x His tag) VH: QLQLQESGPGLVKPAETLSLTCTVSGGSVSSGDNLWDWIRQPPGKGLEWIGSIRDSGNPAYNPSLRSRVTISADTSTDQFSLKLTSVTAADTAVYYCARHSDGGYGKIYGMDVWGQGTTVTVSS VL: DIQLTQSPSFLSASVGDRVTITCRASQAVSTYLVWYLQKPGQAPRLLIYAASTLQSGVPSRFSGSGSGTDFTLTISRLQPEDAGTYFCQQLNSNALVFGGGTKVDIK | 0.23

Every entry's value here was drawn from patent US20240336683A1.
